molecular target: Histone-lysine N-methyltransferase EHMT2 (Homo sapiens, UniProt Q96KQ7); test: Inhibition of protein lysine methyltransferase G9a (unknown origin) by modified ELISA assay
Sequence (Q96KQ7 whole entry): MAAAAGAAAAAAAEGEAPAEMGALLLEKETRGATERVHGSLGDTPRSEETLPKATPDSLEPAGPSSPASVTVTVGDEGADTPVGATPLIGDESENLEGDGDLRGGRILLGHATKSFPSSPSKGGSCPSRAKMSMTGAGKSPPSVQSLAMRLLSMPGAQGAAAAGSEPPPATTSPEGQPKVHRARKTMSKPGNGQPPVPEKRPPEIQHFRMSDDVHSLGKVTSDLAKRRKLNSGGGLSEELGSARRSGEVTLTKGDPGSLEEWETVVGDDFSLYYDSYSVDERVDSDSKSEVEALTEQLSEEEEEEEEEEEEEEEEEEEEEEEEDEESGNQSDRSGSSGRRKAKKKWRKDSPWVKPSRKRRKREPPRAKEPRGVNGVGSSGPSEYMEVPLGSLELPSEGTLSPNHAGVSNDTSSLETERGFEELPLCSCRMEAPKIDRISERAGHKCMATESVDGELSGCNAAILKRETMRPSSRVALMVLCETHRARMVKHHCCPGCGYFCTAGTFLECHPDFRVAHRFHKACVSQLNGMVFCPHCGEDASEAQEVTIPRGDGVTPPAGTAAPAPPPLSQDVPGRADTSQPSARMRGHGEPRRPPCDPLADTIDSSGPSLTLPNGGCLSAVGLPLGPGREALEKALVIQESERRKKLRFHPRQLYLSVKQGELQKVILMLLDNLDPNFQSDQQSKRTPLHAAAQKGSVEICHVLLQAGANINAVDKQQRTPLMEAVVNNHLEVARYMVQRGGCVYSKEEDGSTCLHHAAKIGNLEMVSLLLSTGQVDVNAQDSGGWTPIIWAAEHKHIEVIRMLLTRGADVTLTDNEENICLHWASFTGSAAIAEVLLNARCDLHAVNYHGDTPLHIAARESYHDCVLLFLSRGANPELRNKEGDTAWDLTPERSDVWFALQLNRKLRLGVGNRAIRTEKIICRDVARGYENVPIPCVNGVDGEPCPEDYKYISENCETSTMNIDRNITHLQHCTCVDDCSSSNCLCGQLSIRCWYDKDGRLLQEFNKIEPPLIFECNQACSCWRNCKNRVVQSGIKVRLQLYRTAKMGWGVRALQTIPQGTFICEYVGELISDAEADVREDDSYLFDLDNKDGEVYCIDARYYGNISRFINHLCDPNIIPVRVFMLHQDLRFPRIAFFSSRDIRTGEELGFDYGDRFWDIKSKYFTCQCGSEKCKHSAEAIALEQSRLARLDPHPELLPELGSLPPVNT
Below: a set of entries, each annotated with reported IC50.

Guide cases for IC50, answers given:
>  <COMPOUND>
CN1C(=O)[C@]23C[C@@]4([C@@]56C[C@]78SS[C@](CO)(C(=O)N7[C@@H]5Nc5ccccc56)N(C)C8=O)c5ccccc5N[C@H]4N2C(=O)[C@@]1(CO)SS3

>  <IC50>
6.4 µM

$$$$
>  <COMPOUND>
CN1C(=O)[C@@H]2C[C@@]3([C@@]45C[C@H]6C(=O)N(C)[C@@H](CO)C(=O)N6[C@@H]4Nc4ccccc45)c4ccccc4N[C@H]3N2C(=O)[C@@H]1CO

>  <IC50>
> 100 µM

$$$$
>  <COMPOUND>
CN1C(=O)[C@@]23C[C@]4([C@]56C[C@@]78SS[C@](CO[Si](C)(C)C(C)(C)C)(C(=O)N7[C@H]5Nc5ccccc56)N(C)C8=O)c5ccccc5N[C@@H]4N2C(=O)[C@@]1(CO[Si](C)(C)C(C)(C)C)SS3

>  <IC50>
7.2 µM

$$$$
>  <COMPOUND>
CN1C(=O)C23CCCN2C(=O)C1(CO)SS3 (racemic)

>  <IC50>
5.2 µM

$$$$
>  <COMPOUND>
CN1C(=O)C23CCCN2C(=O)C1(CO)SSS3 (racemic)

>  <IC50>
5.3 µM

$$$$

Alright, here's another compound for you.
I have this compound here, `CN1C(=O)[C@]23C[C@H]4c5ccccc5N[C@H]4N2C(=O)[C@]1(CO[Si](C)(C)C(C)(C)C)SS3` , and I need its recorded IC50.
23.5 µM
